- Tested on: human neuroblastoma cell lines SH-SY5Y treated with 1-methyl-4-phenylpyridinium (MPP+)
- Procedure text: Improvement of mitochondrial dysfunction in MPP+-treated SH-SY5Y cells (mitochondrial oxidation reduction activity, Alamar Blue)
- Assay type: cell-based
- Measurement setup: test compound 0.03 μg/ml, 1.5 mM MPP+, relative to cells in DMSO alone = 100%, read-out: Fluorescence Intensity (%)
Where a name gives a salt, the structure may show the parent alone.
Assay endpoint: activity at 0.03 µg/mL
Include the unit right after the number.

Challenge: Return activity at 0.03 µg/mL (reported value) for this compound: CCCOc1cc2cnccc2c2c(=O)c(-c3ccc(OC)cc3)cn(CC(=O)NCCN3CCOCC3)c12
Response given: 64%

Challenge: Provide measured activity at 0.03 µg/mL value, entry: CCCOc1cc2c(c3c(=O)c(-c4ccsc4)c[nH]c13)CCC2
Response given: 74%

Challenge: Determine its reported activity at 0.03 µg/mL: CCCOc1cc2c(c3c(=O)c(-c4ccc(OC)cc4)c(C)[nH]c13)OCC2
Response given: 81%

Challenge: Kindly indicate its recorded activity at 0.03 µg/mL. Item: COc1ccc(-c2c[nH]c3c4c(cc(C)c3c2=O)CCO4)cc1
Response given: 65%

Challenge: Supply recorded activity at 0.03 µg/mL for COc1ccc(-c2c[nH]c3c(OCC(=O)NCCN4CCOCC4)ccc(F)c3c2=O)cc1 here.
Response given: 58%

Challenge: Give the measured activity at 0.03 µg/mL for CCCOc1ccc(F)c2c(=O)c(-c3cnn(C)c3)cn(COP(=O)(O)O)c12 [Example 222, disodium salt]
Response given: 64%

Challenge: Please supply the value of reported activity at 0.03 µg/mL for the item CCCOc1cc2c(c3c(=O)c(-c4ccc(OC)cc4)cn(COP(=O)(O)O)c13)OCCC2 [Example 36, disodium salt]
Response given: 67%

Challenge: Answer with the recorded activity at 0.03 µg/mL of CCCOc1ccc(F)c2c(=O)c(-c3ccc(C(=O)N4CCC(N5CCOCC5)CC4)cc3)c[nH]c12 only.
Response given: 61%

Challenge: Identify the reported activity at 0.03 µg/mL for the following entry. CCCOc1ccc(F)c2c(=O)c(-c3ccc(OC)cc3)cn(COP(=O)(O)O)c12 [Example 212, disodium salt]
Response given: 62%

Challenge: Output activity at 0.03 µg/mL of CCCOc1cc2ccccc2c2c(=O)c(-c3ccsc3)cn(C)c12
Response given: 71%
